Values were extracted from patent US20260207621A1.

Examples of compounds with documented pIC50 follow.
Assay system: KEAP1 C151 (Homo sapiens, UniProt Q14145)
Construct: treating 500 μg of cell lysate generated from MDA-MB-468 breast cancer cells with DMSO or compound; endogenous in cells; host or cells: MDA-MB-468 breast cancer cell lysate
Sequence (Q14145 whole entry): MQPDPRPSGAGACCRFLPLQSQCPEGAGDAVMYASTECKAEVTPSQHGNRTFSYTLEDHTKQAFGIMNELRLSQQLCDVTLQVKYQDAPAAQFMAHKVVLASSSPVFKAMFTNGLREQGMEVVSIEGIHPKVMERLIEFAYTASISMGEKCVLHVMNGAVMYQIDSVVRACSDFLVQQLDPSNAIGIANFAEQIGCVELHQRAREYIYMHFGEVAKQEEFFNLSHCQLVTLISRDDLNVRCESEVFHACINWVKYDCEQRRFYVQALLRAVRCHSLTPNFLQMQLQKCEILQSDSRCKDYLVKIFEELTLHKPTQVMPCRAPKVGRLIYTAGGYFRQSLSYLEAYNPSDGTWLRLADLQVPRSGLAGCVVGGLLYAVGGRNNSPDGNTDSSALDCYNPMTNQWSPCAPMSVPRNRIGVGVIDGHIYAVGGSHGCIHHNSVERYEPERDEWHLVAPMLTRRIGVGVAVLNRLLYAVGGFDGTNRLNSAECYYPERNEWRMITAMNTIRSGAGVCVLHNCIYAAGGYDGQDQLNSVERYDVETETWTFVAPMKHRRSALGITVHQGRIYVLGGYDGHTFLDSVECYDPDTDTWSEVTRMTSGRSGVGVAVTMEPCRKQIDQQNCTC
Method summary: Nrf2 TMT measurement: in vitro TE50 for KEAP1 C151 (IA-DTB competition, targeted TMT mass spectrometry) in MDA-MB-468 cell lysate
Type: binding
Condition set: in vitro target engagement of KEAP1 C151, targeted TMT, read-out: KEAP1_C151 TE50
Note on units: pIC50 is unitless, being -log10 of a concentration expressed in mol/L.

C=CC(=O)N1[C@H](C(N)=O)COC[C@H]1c1cc(Cl)nc(-c2cc(N)ncn2)c1 (single isomer, unassigned) [Compound 172]; 7.70
C=CC(=O)N1CCOC[C@H]1c1cc(Cl)cc(-c2nc(C)nc(N)n2)c1 (single isomer, unassigned) [Compound 178]; 7.52
C=CC(=O)N1CCOC[C@H]1c1cc(Cl)cc(-c2cccc(C)n2)c1 (single isomer, unassigned) [Compound 98]; 7.59
C=CC(=O)N1CCOC[C@H]1c1cc(Cl)cc(-c2cc(N)ncn2)c1 (single isomer, unassigned) [Compound 80]; 6.54

// C=CC(=O)N1CCOCC1c1cc(Cl)cc(-c2ccnc(C)n2)c1 (single isomer, unassigned) [Compound 35] : pIC50 value = 7.75

// C=CC(=O)N1[C@H](C)COC[C@H]1c1cc(Cl)nc(-c2ccnc(C(N)=O)c2)c1 (single isomer, unassigned) [Compound 145] : pIC50 value = 7.96

// C=CC(=O)N1CCC(F)(F)CC1c1cc(Cl)cc(-c2ccnc(N)n2)c1 (single isomer, unassigned) [Compound 284] : pIC50 value = 7.08

// C=CC(=O)N1CC(C)(C)OC[C@H]1c1cc(Cl)cc(-c2ncnc(N)n2)c1 (single isomer, unassigned) [Compound 66] : pIC50 value = 7.64

// C=CC(=O)N1CCOC[C@H]1c1cc(Cl)cc(-c2cnc(=O)n(C)c2)c1 (single isomer, unassigned) [Compound 213] : pIC50 value = 6.33

// C=CC(=O)N1CCOC[C@H]1c1cc(Cl)cc(-c2ncc(N)c(F)n2)c1 (single isomer, unassigned) [Compound 278] : pIC50 value = 8.21

// C=CC(=O)N1CCOC[C@H]1c1cc(Cl)cc(-c2ncnc3[nH]cnc23)c1 (single isomer, unassigned) [Compound 58] : pIC50 value = 7.52

// C=CC(=O)N1CCOCC1c1cc(Cl)cc(-c2cccc(C(N)=O)c2)c1 (single isomer, unassigned) [Compound 71] : pIC50 value = 7.52

// C=CC(=O)N1[C@H](C)COC[C@H]1c1cc(Cl)cc(-c2ncc(N)cn2)c1 (single isomer, unassigned) [Compound 130] : pIC50 value = 7.03

###

Assay system: KEAP1 C151 (Homo sapiens, UniProt Q14145)
Construct: treating 500 μg of cell lysate generated from MDA-MB-468 breast cancer cells with DMSO or compound; endogenous in cells
Method summary: Nrf2 TMT measurement: in vitro TE50 for KEAP1 C151 (IA-DTB competition, targeted TMT mass spectrometry) in MDA-MB-468 cell lysate
Condition set: in vitro target engagement of KEAP1 C151, targeted TMT, read-out: KEAP1_C151 TE50
Mark each entry y if its IC50 sits below 20 nM, and n for all others.

Here's what some known entries look like.
C=CC(=O)N1CCOCC1c1cc(Cl)cc(-c2ccccc2)c1 (racemic) [Compound 1]; n
C=CC(=O)N1CCOC[C@H]1c1cc(Cl)cc(-c2nccc(C)n2)c1 (single isomer, unassigned) [Compound 87]; y
C=CC(=O)N1CCN(C(C)=O)C[C@H]1c1cc(Cl)cc(-c2ccnc(N)n2)c1 (single isomer, unassigned) [Compound 81]; y
C=CC(=O)N1CCOC[C@H]1c1cc(Cl)cc(-c2ncc(F)c(N)n2)c1 (single isomer, unassigned) [Compound 263]; y
C=CC(=O)N1CCN(C(C)=O)C[C@H]1c1cc(Cl)cc(-c2ncnc(N)n2)c1 (single isomer, unassigned) [Compound 74]; n
C=CC(=O)N1CCN(C(C)=O)C[C@H]1c1cc(Cl)cc(-c2ccc(F)c(C(N)=O)c2)c1 (single isomer, unassigned) [Compound 79]; y
C=CC(=O)N1CCOC[C@H]1c1cc(Cl)cc(-c2nc(C)cc(C)n2)c1 (single isomer, unassigned) [Compound 93]; n
C=CC(=O)N1CCOCC1c1cc(Cl)cc(-c2ccnnc2)c1 (single isomer, unassigned) [Compound 14]; n

Challenge: Dear reviewer, please state whether C=CC(=O)N1CC2(CC2)OCC1(C)c1cc(Cl)cc(-c2ccnc(N)n2)c1 (single isomer, unassigned) [Compound 161] has IC50 strictly beneath 20 nM.
Response given: n

Challenge: Dear reviewer, please state whether C=CC(=O)N1[C@H](c2cc(Cl)cc(-c3ccnc(N)n3)c2)COC[C@H]1C(F)F (single isomer, unassigned) [Compound 290] has IC50 strictly beneath 20 nM.
Response given: y

Challenge: Dear reviewer, please state whether C=CC(=O)N1CCOCC1c1cc(Cl)cc(-c2ccnc(C(N)=O)n2)c1 (single isomer, unassigned) [Compound 89] has IC50 strictly beneath 20 nM.
Response given: n

Challenge: Dear reviewer, please state whether C=CC(=O)N1[C@H](c2cc(Cl)nc(-c3ccnc(N)n3)c2)COC[C@H]1C(F)F (single isomer, unassigned) [Compound 203] has IC50 strictly beneath 20 nM.
Response given: y

Challenge: Dear reviewer, please state whether C=CC(=O)N1[C@H](C)COC[C@H]1c1cc(Cl)cc(-c2cc(N)ncn2)c1 (single isomer, unassigned) [Compound 131] has IC50 strictly beneath 20 nM.
Response given: n

Challenge: Dear reviewer, please state whether C=CC(=O)N1CC[C@](C)(O)C[C@H]1c1cc(Cl)cc(-c2ncc(N)cn2)c1 (single isomer, unassigned) [Compound 265] has IC50 strictly beneath 20 nM.
Response given: n

Challenge: Dear reviewer, please state whether C=CC(=O)N1CCN(S(C)(=O)=O)C[C@H]1c1cc(Cl)cc(-c2cc[nH]c(=O)c2)c1 (single isomer, unassigned) [Compound 15] has IC50 strictly beneath 20 nM.
Response given: n

Challenge: Dear reviewer, please state whether C=CC(=O)N1CC2(CCCC2)OCC1(C)c1cc(Cl)cc(-c2nccc(N)n2)c1 (single isomer, unassigned) [Compound 171] has IC50 strictly beneath 20 nM.
Response given: n

Challenge: Dear reviewer, please state whether C=CC(=O)N1CC(C)(C)OC[C@H]1c1cc(Cl)cc(-c2ncc(N)c(N)n2)c1 (single isomer, unassigned) [Compound 287] has IC50 strictly beneath 20 nM.
Response given: n

Challenge: Dear reviewer, please state whether C=CC(=O)N1CCOC[C@H]1c1cc(Cl)cc(-c2cnc(N)c(N)n2)c1 (single isomer, unassigned) [Compound 258] has IC50 strictly beneath 20 nM.
Response given: y

Challenge: Dear reviewer, please state whether C=CC(=O)N1CCOC[C@H]1c1cc(Cl)cc(C2CNC(=S)NC2)c1 (single isomer, unassigned) [Compound 233] has IC50 strictly beneath 20 nM.
Response given: n

Challenge: Dear reviewer, please state whether C=CC(=O)N1CCOC[C@H]1c1cc(Cl)cc(-c2c[nH]c(N)n2)c1 [Compound 193] has IC50 strictly beneath 20 nM.
Response given: n

Challenge: Dear reviewer, please state whether C=CC(=O)N1CCOCC1c1cc(Cl)cc(-c2cc(=O)[nH]cn2)c1 (single isomer, unassigned) [Compound 94] has IC50 strictly beneath 20 nM.
Response given: y

Challenge: Dear reviewer, please state whether C=CC(=O)N1CC(C)(C)OC[C@H]1c1cc(Cl)cc(-c2cc(C)ncn2)c1 (single isomer, unassigned) [Compound 46] has IC50 strictly beneath 20 nM.
Response given: n

###

Assay system: KEAP1 C151 (Homo sapiens, UniProt Q14145)
Construct: treating 500 μg of cell lysate generated from MDA-MB-468 breast cancer cells with DMSO or compound; endogenous in cells; host or cells: MDA-MB-468 breast cancer cell lysate
Method summary: Nrf2 TMT measurement: in vitro TE50 for KEAP1 C151 (IA-DTB competition, targeted TMT mass spectrometry) in MDA-MB-468 cell lysate
Type: binding
Condition set: in vitro target engagement of KEAP1 C151, targeted TMT, read-out: KEAP1_C151 TE50
Property: log10(IC50) (log10 of the value in nM)
Quick note: numbers are log10 of IC50, with nM as the unit.

Answered cases to consult:
C=CC(=O)N1CC2(CC2)OCC1c1cc(Cl)nc(-c2cc(N)ncn2)c1 (single isomer, unassigned) [Compound 174]; 1.88
C=CC(=O)N1[C@H](C)COC[C@H]1c1cc(Cl)cc(-c2ccnc(C(N)=O)c2)c1 (single isomer, unassigned); 1.80

// C=CC(=O)N1CCOCC1c1cc(Cl)cc(-c2cc(C(N)=O)n3ccnc3c2)c1 (single isomer, unassigned) : log10(IC50) value = 1.56

// C=CC(=O)N1C[C@@H](C)N(C(=O)C2CC2)C[C@@H]1c1cc(Cl)cc(-c2ncc(N)cn2)c1 (single isomer, unassigned) : log10(IC50) value = 1.34

// C=CC(=O)N1CCOC[C@H]1c1cc(Cl)cc(-c2nc(C(N)=O)co2)c1 (single isomer, unassigned) : log10(IC50) value = 2.23

// C=CC(=O)N1CCOC[C@H]1c1cc(Cl)cc(-c2cc(OC)ncn2)c1 (single isomer, unassigned) : log10(IC50) value = 0.86

// C=CC(=O)N1CCOC[C@H]1c1cc(Cl)cc(-c2ccnc3[nH]ccc23)c1 (single isomer, unassigned) : log10(IC50) value = 1.36

// C=CC(=O)N1CCOC[C@H]1c1cc(Cl)cc(-c2ncnc(NCCCN(C)C)n2)c1 (single isomer, unassigned) : log10(IC50) value = 2.45

// C=CC(=O)N1CCOCC1c1cc(Cl)cc(-c2cnc3cncn3c2)c1 (single isomer, unassigned) : log10(IC50) value = 1.95

// C=CC(=O)N1CC2(CC2)OCC1c1cc(Cl)cc(-c2ccnc(C)n2)c1 (single isomer, unassigned) : log10(IC50) value = 1.95

// C=CC(=O)N1CCN(S(C)(=O)=O)CC1c1cc(Cl)cc(-c2ccnc(NC(C)=O)c2)c1 (single isomer, unassigned) : log10(IC50) value = 0.41

// C=CC(=O)N1CCC(F)(F)CC1c1cc(Cl)cc(-c2ccnc(C)n2)c1 (single isomer, unassigned) : log10(IC50) value = 1.79

// C=CC(=O)N1[C@H](C(=O)N(C)C)COC[C@H]1c1cc(Cl)nc(-c2cc(N)ncn2)c1 (single isomer, unassigned) : log10(IC50) value = 1.85
